// reported inhibition at 100 µM for each item listed
Target: recombinant human LTA4 hydrolase (rhLTA4H) (Homo sapiens)
Sequence (P09960 1-611): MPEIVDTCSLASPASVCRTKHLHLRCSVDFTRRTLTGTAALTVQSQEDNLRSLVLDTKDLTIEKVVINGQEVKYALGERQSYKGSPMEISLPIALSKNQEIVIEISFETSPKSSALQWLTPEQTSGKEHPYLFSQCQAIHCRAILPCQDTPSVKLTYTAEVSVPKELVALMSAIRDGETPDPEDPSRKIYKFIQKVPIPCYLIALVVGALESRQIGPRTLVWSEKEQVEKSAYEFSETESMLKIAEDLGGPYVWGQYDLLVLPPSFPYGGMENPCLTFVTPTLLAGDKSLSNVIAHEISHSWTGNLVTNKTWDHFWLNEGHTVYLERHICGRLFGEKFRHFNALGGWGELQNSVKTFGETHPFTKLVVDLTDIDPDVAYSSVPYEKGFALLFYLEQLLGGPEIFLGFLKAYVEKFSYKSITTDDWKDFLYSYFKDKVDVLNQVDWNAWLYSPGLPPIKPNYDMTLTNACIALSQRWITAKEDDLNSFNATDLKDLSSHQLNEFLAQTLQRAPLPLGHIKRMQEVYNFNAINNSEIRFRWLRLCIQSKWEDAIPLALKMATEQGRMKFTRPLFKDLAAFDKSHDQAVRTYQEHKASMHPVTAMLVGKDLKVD
Experiment: Recombinant human LTA4 hydrolase assay for LTA4 hydrolase inhibitor activity
Details: read-out: Recombinant Human LTA4 Hydrolase Assay, % at 100 μM
Give just the number in %; leave the unit off.

Sample records with inhibition at 100 µM:
MOLECULE | inhibition at 100 µM (%)
c1ccc(Cc2ccc3c(c2)CC(Cn2nc4ccncc4n2)O3)cc1 (stereo not shown) | 24
C#CC(CC(=O)OCC)NCCOc1ccc(Cc2ccccc2)cc1 (stereo not shown) | 76
c1ccc(Cc2ccc3c(c2)CC(Cn2nc4cccnc4n2)O3)cc1 (stereo not shown) | 19
CCOC(=O)C1CCN(CCOc2ccc(Cc3cccnc3)cc2)CC1 | 44
NC(=O)C1CCN(CCCOc2ccc(Cc3ccccc3)cc2)CC1 | 4

Lookup: inhibition at 100 µM lookup needed for NC(=O)C1CCCN(CCCOc2ccc(Cc3ccccc3)cc2)C1 (stereo not shown) , thanks.
Found: 15

Lookup: Next record, please: c1ccc(Cc2ccc3c(c2)CC(Cn2nnc4cccnc42)O3)cc1 (stereo not shown)
Found: 36

Lookup: Next record, please: `CCOC(=O)C1CCN(CCOc2ccc(Cc3ccc(F)cc3)cc2)CC1`
Found: 46

Lookup: Next record, please: CC1(CN2CCC(C(N)=O)CC2)Cc2cc(Cc3ccccc3)ccc2O1 (stereo not shown)
Found: 41

Lookup: Next record, please: `O=C(CNCCOc1ccc(Cc2ccccc2)cc1)OCc1ccccc1`
Found: 47

====

Tested on: LTB4 production in mouse blood (LTA4 hydrolase)
Assay: Ex vivo LTB4 production by calcium ionophore stimulated mouse blood after oral dosing
Type: in vivo
Details: Mus musculus, po, 1 h; read-out: Murine Ex Vivo LTB4 Inhibition % I LTB4
PROPERTY_LABEL: inhibition in vivo at 10 mg/kg (%)
Give just the number in %; leave the unit off.

Sample records with inhibition in vivo at 10 mg/kg:
COMPOUND | PROPERTY_LABEL | UOM | OBS_VALUE
c1ccc(Cc2ccc3c(c2)CC(Cn2ccc4ncnc-4c2)O3)cc1 (centres unmarked) [358 C] | inhibition in vivo at 10 mg/kg | % | 13
CCOC(=O)C1CCN(CCOc2ccc(Cc3ccccc3)s2)CC1 [Example 370] | inhibition in vivo at 10 mg/kg | % | 96
c1ccc(Cc2ccc3c(c2)CC(Cn2cnc4cnccc42)O3)cc1 (centres unmarked) [358 B] | inhibition in vivo at 10 mg/kg | % | 33
O=C(O)C1CCN(CCOc2ccc(Cc3ccccc3)cc2)CC1 [Example 429] | inhibition in vivo at 10 mg/kg | % | 80

Continue with the compound presented below.
Lookup: inhibition in vivo at 10 mg/kg lookup needed for c1ccc(Cc2ccc(OCCN3CCCC3)cc2)cc1 [Example 45] , thanks.
Found: 35

====

// reported pIC50 for each item listed
Molecular target: recombinant human LTA4 hydrolase (rhLTA4H) (Homo sapiens, UniProt P09960)
Assay: Recombinant human LTA4 hydrolase assay for LTA4 hydrolase inhibitor activity
Settings: Recombinant Human LTA4 Hydrolase Assay IC50 LTA4H, recombinant hLTA4H
Hey, just a heads up that pIC50 is the negative log base 10 of the concentration in molar.

MOLECULE | OBS_VALUE
COc1ccc(Cc2ccc(OCCN3CCC(C(N)=O)CC3)cc2)cc1 [Example 232] | 5.68
NC(=S)N1CCN(CCOc2ccc(Cc3ccccc3)cc2)CC1 [Example 458] | 6.25
CCOC(=O)CCNCCCCCOc1ccc(Cc2ccccc2)cc1 [Example 274] | 6.10
O=C(O)[C@@H]1CCCN1CCCOc1ccc(Cc2ccccc2)cc1 [Example 430] | 6.96
NCCOc1ccc(Cc2ccccc2)cc1 [Example 496] | 8.00

Lookup: pIC50 lookup needed for NC(=O)C1CCN(CC2Cc3cc(Cc4ccccc4)ccc3O2)CC1 (stereo not shown) [Example 281] , thanks.
Found: 7.03

Lookup: Next record, please: COc1ccc(COc2ccc(OCCN3CCCC3)cc2)cc1 [Example 213]
Found: 5.89

Lookup: Next record, please: Brc1ccc(COc2ccc(OCCN3CCCC3)cc2)cc1 [Example 203]
Found: 6.42

Lookup: Next record, please: NC(=O)C1CCN(CCOc2ccc(Oc3ccccc3)cc2)CC1 [Example 252]
Found: 6.80

Lookup: Next record, please: NC(=O)C1CCN(CCOc2ccc(Cc3ccc(F)cc3)cc2)CC1 [Example 235]
Found: 5.00

====

// reported pIC50 for each item listed
Target: recombinant human LTA4 hydrolase (rhLTA4H) (Homo sapiens)
Test: Recombinant human LTA4 hydrolase assay for LTA4 hydrolase inhibitor activity
Conditions: Recombinant Human LTA4 Hydrolase Assay IC50 LTA4H, recombinant hLTA4H
Hey, just a heads up that pIC50 is the negative log base 10 of the concentration in molar.

MOLECULE | pIC50
C[C@@H]1C[C@H](C(N)=O)C[C@H](C)N1CCOc1ccc(Cc2ccccc2)cc1 | 7.30
O=C(CCNCCCOc1ccc(Cc2ccccc2)cc1)N1CCOCC1 | 6.43
COc1ccccc1Cc1ccc(OCCN2CCCC2)cc1 | 4.80
CNC(=O)CCNCCCOc1ccc(Cc2ccccc2)cc1 | 7.00
COC(=O)CCN(C)CCCOc1ccc(Cc2ccsc2)cc1 | 6.05

Lookup: pIC50 lookup needed for N/C(=N\O)C1CCN(CC2Cc3cc(Cc4ccccc4)ccc3O2)CC1 (stereo not drawn) , thanks.
Found: 7.46

Lookup: Next record, please: `O=C(O)C1CCN(CCOc2ccc(Cc3cccs3)cc2)CC1`
Found: 6.95

Lookup: Next record, please: `O=C(O)C1CCN(CCOc2ccc(Cc3ccccc3)cc2)CC1`
Found: 6.60

====

Tested on: LTB4 production in mouse blood (LTA4 hydrolase)
Experiment: Ex vivo LTB4 production by calcium ionophore stimulated mouse blood after oral dosing
Format: in vivo
Details: mouse, oral gavage, 1 hour after administration of 50 mg/kg (*); read-out: Murine Ex Vivo LTB4 Inhibition % I LTB4
Rule: inhibition in vivo at 50 mg/kg of 40% or more gives TRUE; anything lower gives FALSE.

Illustrative cases are given below, each with its answer.
MOLECULE | CLASSIFICATION
O=C(OCc1ccccc1)C1CCCN1CCCOc1ccc(Cc2ccccc2)cc1 (stereo not drawn) | TRUE
c1ccc(Cc2ccc(OCCCN3CCCC3)cc2)cc1 | FALSE
COC(=O)CCNCCCOc1ccc(Cc2ccccc2)cc1 | TRUE
Fc1cccc(COc2ccc(OCCN3CCCC3)cc2)c1 | TRUE
c1csc(COc2ccc(OCCN3CCCC3)cc2)c1 | FALSE

Lookup: Does inhibition in vivo at 50 mg/kg meet or surpass 40% for `CCOC(=O)CNCCCOc1ccc(Cc2ccccc2)cc1` ?
Found: TRUE

====

Target: recombinant human LTA4 hydrolase (rhLTA4H) (Homo sapiens)
Test: Recombinant human LTA4 hydrolase assay for LTA4 hydrolase inhibitor activity
Conditions: Recombinant Human LTA4 Hydrolase Assay IC50 LTA4H, recombinant hLTA4H
// reported pIC50 for each item listed
Hey, just a heads up that pIC50 is the negative log base 10 of the concentration in molar.

Sample records with pIC50:
COMPOUND | pIC50
NC(=O)C1CCN(CCOc2ccc(Cc3cccs3)cc2)CC1 [Example 229] | 6.62
C1=CC2CC1CN2CCOc1ccc(Cc2ccccc2)cc1 (stereo not shown) [Example 497] | 6.70
c1ccc(Cc2ccc(OCCCn3cnc4ccncc43)cc2)cc1 [356 A] | 6.46

Lookup: pIC50 lookup needed for NC(=O)C1CCN(CCOc2ccc(Cc3ccsc3)cc2)CC1 [Example 230] , thanks.
Found: 6.41

Lookup: Next record, please: c1ccc(Cc2ccc(OCCn3cnc4ccccc43)cc2)cc1 [Example 339]
Found: 5.70

Lookup: Next record, please: O=C(CCNCCCCOc1ccc(Cc2ccccc2)cc1)OCc1ccccc1 [Example 273]
Found: 6.21

Lookup: Next record, please: Fc1cccc(Cc2ccc(OCCN3CCCC3)cc2)c1 [Example 142]
Found: 7.43

Lookup: Next record, please: c1ccc(Cc2ccc(OCCCN3CCCC3)cc2)cc1 [Example 259]
Found: 7.00

Lookup: Next record, please: c1ccc(Oc2ccc(OCCn3cnc4cccnc43)cc2)cc1 [348 A]
Found: 5.34

Lookup: Next record, please: N=C(N)C1CCN(CCOc2ccc(Cc3ccccc3)cc2)CC1 [Example 449]
Found: 6.85
